The measured values listed here are drawn from PubChem BioAssay (NCI).

Tested on: K-562 leukemia
procedureText: NCI-60 one-dose screen, 48 h
particulars: 10 µM unless noted
Method: Cells are grown in 96 well plates and exposed to the test compound for 48 hours. Compounds are tested at a single concentration, which is 10^-5 M for most compounds. The reported endpoint is percent growth (GI% or GIPRCNT), where numbers from 0 - 100% represent growth inhibition, and numbers from -100% - 0 represent cell death. For example, a value of 40 represents 60% growth inhibition. A value of 0 means no net growth occurred over the course of the experiment. […]
About 83,000 compounds went through this panel and 20% of them were active in at least one assay; those are over-represented in the sample as a whole. The source made the active and inactive calls. How the source made its calls: active means growth percent below 10; inactive means the rest.
# output must be one of 1 (yes) = active, 0 (no) = inactive

Sample answers from the record:
INSERT INTO results (compound, answerlabel) VALUES
  ('COC(=O)C(OC(C)=O)C(OC(C)=O)c1ccc(OC)c(OC)c1 (stereo not given)', '0 (no)'),
  ('Cc1cc2nc3c4cc(C=O)ccc4n(CCN(C)C)c3nc2cc1C', '1 (yes)'),
  ('O=C(CCN1CCCC1)Nc1ccc2c(NCCCc3ccccc3)c3ccccc3nc2c1', '1 (yes)'),
  ('NC(=O)Nc1ccc(-n2cnc3cc(-c4ccc(O)cc4)ccc32)cc1', '0 (no)');

# evaluate next
stdin: Tell me the recorded outcome of this test for CCCOC(=O)N[C@H]1CCc2c(Cl)c(OC)c(OC)c(OC)c2-c2ccc(SC)c(=O)cc21 .
stdout: 1 (yes)
